System: 596521-263-R-J1-PDC complex spheroids, viability % of control
Test: Anticancer human tumor 596521-263-R-J1-PDC patient-derived soft tissue sarcoma cell line growth inhibition [GQUAD]
Conditions: second compound 0.0316 µM; first compound 0.1 µM; stronger effect = lower value
Measure Name: viability, T/C (%)
Quick reminder: number only, in %, skip the unit.

Consider the worked cases shown below.
// field: viability, T/C; key: O=c1[nH]cc(F)c(=O)[nH]1 + Cc1[nH]c2ccc(F)cc2c1-c1nc2c3cccnc3c3ncccc3c2[nH]1 ; value = 105

// field: viability, T/C; key: C=CCn1c(=O)c2cnc(Nc3ccc(N4CCN(C)CC4)cc3)nc2n1-c1cccc(C(C)(C)O)n1 + Cc1[nH]c2ccc(F)cc2c1-c1nc2c3cccnc3c3ncccc3c2[nH]1 ; value = 97.8

// field: viability, T/C; key: O=C(c1cc(Cc2n[nH]c(=O)c3ccccc23)ccc1F)N1CCN(C(=O)C2CC2)CC1 + CN(C)c1ccc(Nc2c3ccc(NC(=O)CCN4CCCC4)cc3nc3cc(NC(=O)CCN4CCCC4)ccc23)cc1 ; value = 106

// field: viability, T/C; key: CC1COCCN1c1cc(-c2ccnn2C)c2ccnc(-c3ccn[nH]3)c2n1 (stereo unspecified) + Cc1cnc(CNC(=O)c2c(=O)c3ccc(N4CCCN(C)CC4)nc3n3c2sc2ccccc23)cn1 ; value = 55.6

New cases:
// field: viability, T/C; key: O=c1[nH]cc(F)c(=O)[nH]1 + Cc1cnc(CNC(=O)c2c(=O)c3ccc(N4CCCN(C)CC4)nc3n3c2sc2ccccc23)cn1 ; value = 112

// field: viability, T/C; key: Nc1ccn(C2OC(CO)C(O)C2(F)F)c(=O)n1 (stereo unspecified) + Cc1[nH]c2ccc(F)cc2c1-c1nc2c3cccnc3c3ncccc3c2[nH]1 ; value = 45.5

// field: viability, T/C; key: Nc1ccn(C2OC(CO)C(O)C2(F)F)c(=O)n1 (stereo unspecified) + CN(C)c1ccc(Nc2c3ccc(NC(=O)CCN4CCCC4)cc3nc3cc(NC(=O)CCN4CCCC4)ccc23)cc1 ; value = 39.2

* * *

Test system: 596521-263-R-J1-PDC complex spheroids, viability % of control
Test: Anticancer human tumor 596521-263-R-J1-PDC cell line growth inhibition [GQUAD];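 also: spheroids exposed to drugs for 7 days before viability reading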
Conditions: curve of first compound; second compound 0.1 µM
Doc: threshold 500 nM (exclusive). Items with IC50 beneath it return satisfied; others return not satisfied.

Check if IC50 falls below 500 nM for O=C(c1cc(Cc2n[nH]c(=O)c3ccccc23)ccc1F)N1CCN(C(=O)C2CC2)CC1 + CN(C)c1ccc(Nc2c3ccc(NC(=O)CCN4CCCC4)cc3nc3cc(NC(=O)CCN4CCCC4)ccc23)cc1 . not satisfied

New cases:
Check if IC50 falls below 500 nM for O=C(c1cc(Cc2n[nH]c(=O)c3ccccc23)ccc1F)N1CCN(C(=O)C2CC2)CC1 + Cc1[nH]c2ccc(F)cc2c1-c1nc2c3cccnc3c3ncccc3c2[nH]1 . not satisfied

Check if IC50 falls below 500 nM for Cc1[nH]c2ccccc2c1CCNCc1ccc(/C=C/C(=O)NO)cc1 + CN(C)c1ccc(Nc2c3ccc(NC(=O)CCN4CCCC4)cc3nc3cc(NC(=O)CCN4CCCC4)ccc23)cc1 . satisfied

Check if IC50 falls below 500 nM for O=c1[nH]cc(F)c(=O)[nH]1 + Cc1cnc(CNC(=O)c2c(=O)c3ccc(N4CCCN(C)CC4)nc3n3c2sc2ccccc23)cn1 . not satisfied

Check if IC50 falls below 500 nM for CC(=O)O[C@H]1C(=O)[C@@]2(C)[C@H]([C@H](OC(=O)c3ccccc3)[C@]3(O)C[C@H](OC(=O)[C@H](O)[C@@H](NC(=O)c4ccccc4)c4ccccc4)C(C)=C1C3(C)C)[C@]1(OC(C)=O)CO[C@@H]1C[C@@H]2O + Cc1[nH]c2ccc(F)cc2c1-c1nc2c3cccnc3c3ncccc3c2[nH]1 . satisfied

* * *

Test system: 596521-263-R-J1-PDC complex spheroids, viability % of control
Assay: Anticancer human tumor 596521-263-R-J1-PDC cell line growth inhibition [GQUAD];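 also: spheroids exposed to drugs for 7 days before viability reading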;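 as to viability, T/C: 100% = DMSO vehicle control viability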
Settings: second compound 0.316 µM; first compound 3.16 µM; stronger effect = lower value
Measure Name: viability, T/C (%)
Quick reminder: number only, in %, skip the unit.

Consider the worked cases shown below.
// field: viability, T/C; key: C=CC(=O)N1CCN(c2nc(=O)n(-c3c(C)ccnc3C(C)C)c3nc(-c4c(O)cccc4F)c(F)cc23)C(C)C1 (stereo not drawn) + Cc1[nH]c2ccc(F)cc2c1-c1nc2c3cccnc3c3ncccc3c2[nH]1 ; value = 89.8

// field: viability, T/C; key: CCCS(=O)(=O)Nc1ccc(F)c(C(=O)c2c[nH]c3ncc(-c4ccc(Cl)cc4)cc23)c1F + Cc1[nH]c2ccc(F)cc2c1-c1nc2c3cccnc3c3ncccc3c2[nH]1 ; value = 46.3

Now look at this entry.
// field: viability, T/C; key: CCCS(=O)(=O)Nc1ccc(F)c(C(=O)c2c[nH]c3ncc(-c4ccc(Cl)cc4)cc23)c1F + CN(C)c1ccc(Nc2c3ccc(NC(=O)CCN4CCCC4)cc3nc3cc(NC(=O)CCN4CCCC4)ccc23)cc1 ; value = 65.9

* * *

Tested on: 596521-263-R-J1-PDC complex spheroids, viability % of control
Test: Anticancer human tumor 596521-263-R-J1-PDC cell line growth inhibition [GQUAD];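 also: spheroids exposed to drugs for 7 days before viability reading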;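 as to viability, T/C: 100% = DMSO vehicle control viability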
Settings: second compound 0.0316 µM; first compound 1 µM; stronger effect = lower value
Source text: DNA G-quadruplex Stabilizer Agents in Combinations in Complex Spheroids A high-throughput screen of multi-cell type tumor spheroids was designed to identify active combinations of DNA G-quadruplex stabilizer agents and targeted small molecules. […] Compounds. […] If the clinical Cmax for an agent had not been determined, the highest concentration tested was 10 microM. […]
Measure Name: viability, T/C (%)
Quick reminder: number only, in %, skip the unit.

Consider the worked cases shown below.
// field: viability, T/C; key: O=C(NO)c1cnc(N2CCN(S(=O)(=O)c3ccc4ccccc4c3)CC2)nc1 + Cc1[nH]c2ccc(F)cc2c1-c1nc2c3cccnc3c3ncccc3c2[nH]1 ; value = 28.5

// field: viability, T/C; key: C#Cc1c(F)ccc2cc(O)cc(-c3ncc4c(N5CC6CCC(C5)N6)nc(OCC56CCCN5CC(F)C6)nc4c3F)c12 (stereo not given) + Cc1[nH]c2ccc(F)cc2c1-c1nc2c3cccnc3c3ncccc3c2[nH]1 ; value = 60.9

// field: viability, T/C; key: O=C(c1cc(Cc2n[nH]c(=O)c3ccccc23)ccc1F)N1CCN(C(=O)C2CC2)CC1 + CN(C)c1ccc(Nc2c3ccc(NC(=O)CCN4CCCC4)cc3nc3cc(NC(=O)CCN4CCCC4)ccc23)cc1 ; value = 104

// field: viability, T/C; key: CC1COCCN1c1cc(C2(S(C)(=N)=O)CC2)nc(-c2ccnc3[nH]ccc23)n1 (stereo not given) + Cc1[nH]c2ccc(F)cc2c1-c1nc2c3cccnc3c3ncccc3c2[nH]1 ; value = 79.2

Now look at this entry.
// field: viability, T/C; key: C#Cc1c(F)ccc2cc(O)cc(-c3ncc4c(N5CC6CCC(C5)N6)nc(OCC56CCCN5CC(F)C6)nc4c3F)c12 (stereo not given) + Cc1cnc(CNC(=O)c2c(=O)c3ccc(N4CCCN(C)CC4)nc3n3c2sc2ccccc23)cn1 ; value = 88

* * *

# viability, T/C values compiled below
Tested on: 596521-263-R-J1-PDC complex spheroids, viability % of control
Experiment: Anticancer human tumor 596521-263-R-J1-PDC cell line growth inhibition [GQUAD];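 also: spheroids exposed to drugs for 7 days before viability reading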;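 as to viability, T/C: 100% = DMSO vehicle control viability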
Conditions: second compound 0.0316 µM; first compound 0.1 µM; stronger effect = lower value
Quick reminder: number only, in %, skip the unit.

// field: viability, T/C; key: COc1cc(C2c3cc4c(cc3C(OC3OC5COC(C)OC5C(O)C3O)C3COC(=O)C23)OCO4)cc(OC)c1O (centres undefined) + Cc1cnc(CNC(=O)c2c(=O)c3ccc(N4CCCN(C)CC4)nc3n3c2sc2ccccc23)cn1 ; value = 83.6

New cases:
// field: viability, T/C; key: C#Cc1c(F)ccc2cc(O)cc(-c3ncc4c(N5CC6CCC(C5)N6)nc(OCC56CCCN5CC(F)C6)nc4c3F)c12 (centres undefined) + Cc1cnc(CNC(=O)c2c(=O)c3ccc(N4CCCN(C)CC4)nc3n3c2sc2ccccc23)cn1 ; value = 94.4

// field: viability, T/C; key: CC(=O)O[C@H]1C(=O)[C@@]2(C)[C@H]([C@H](OC(=O)c3ccccc3)[C@]3(O)C[C@H](OC(=O)[C@H](O)[C@@H](NC(=O)c4ccccc4)c4ccccc4)C(C)=C1C3(C)C)[C@]1(OC(C)=O)CO[C@@H]1C[C@@H]2O + CN(C)c1ccc(Nc2c3ccc(NC(=O)CCN4CCCC4)cc3nc3cc(NC(=O)CCN4CCCC4)ccc23)cc1 ; value = 27.7

// field: viability, T/C; key: Cc1cccc(N(C)C(=O)C2C(O)CCN2c2nc(C)cc(C(F)(F)F)c2C#N)c1 (centres undefined) + CN(C)c1ccc(Nc2c3ccc(NC(=O)CCN4CCCC4)cc3nc3cc(NC(=O)CCN4CCCC4)ccc23)cc1 ; value = 99
